# Assay Comment: Plasma kinetics of TMC278 in beagle dogs after single intramuscular administration
# Assay type: in vivo
# Study Conditions: male, beagle, dog, plasma, intramuscular, 2.5 mg/kg, dog No. 16854; 0 h (predose); single IM 2.5 mg/kg, aqueous 30% DMA/50% PEG400 solution
Readout Name: concentration at 0 h

Prompt: Suppose we examine the compound Cc1cc(C=CC#N)cc(C)c1Nc1ccnc(Nc2ccc(C#N)cc2)n1 ; what concentration at 0 h value has been reported?
Completion: < 1 ng/mL

###

# Assay Comment: Plasma kinetics of TMC278 in beagle dogs after single intramuscular administration
# Type: in vivo
# Study Conditions: male, beagle, dog, plasma, im, 2.5 mg/kg, mean (n=2); single IM 2.5 mg/kg, aqueous 30% DMA/50% PEG400 solution; read-out: t1/2, 24-72 h (converted)
Readout Name: half-life (h)
Give bare numbers, in h.

Prompt: Suppose we examine the compound Cc1cc(C=CC#N)cc(C)c1Nc1ccnc(Nc2ccc(C#N)cc2)n1 [TMC278] ; what half-life value has been reported?
Completion: 63

###

# Assay Comment: Plasma kinetics of TMC278 in beagle dogs after single intramuscular administration
# Format: in vivo
# Study Conditions: male, beagle, dog, plasma, intramuscular, 2.5 mg/kg, dog No. 16924; day 92; single IM 2.5 mg/kg, aqueous 30% DMA/50% PEG400 solution; read-out: plasma concentration during the wash-out period
Readout Name: concentration at 92 day (ng/mL)
Answers are plain numbers, in ng/mL.

Prompt: Suppose we examine the compound Cc1cc(C=CC#N)cc(C)c1Nc1ccnc(Nc2ccc(C#N)cc2)n1 ; what concentration at 92 day value has been reported?
Completion: 2.51

###

# Assay Comment: Plasma kinetics of TMC278 in beagle dogs after single intramuscular administration
# Type: in vivo
# Study Conditions: male, beagle, dog, plasma, intramuscular, 2.5 mg/kg, dog No. 16854; day 106; single IM 2.5 mg/kg, aqueous 30% DMA/50% PEG400 solution; read-out: plasma concentration during the wash-out period
Readout Name: concentration at 106 day (ng/mL)
One number for each entry, in ng/mL.

Prompt: Suppose we examine the molecule Cc1cc(C=CC#N)cc(C)c1Nc1ccnc(Nc2ccc(C#N)cc2)n1 ; what concentration at 106 day value has been reported?
Completion: 2.02

###

# Assay Comment: Plasma kinetics of TMC278 in beagle dogs after single intramuscular administration
# Format: in vivo
# Study Conditions: male, beagle, dog, plasma, intramuscular, 2.5 mg/kg, dog No. 16924; 312 h after dose; single IM 2.5 mg/kg, aqueous 30% DMA/50% PEG400 solution
Readout Name: concentration at 312 h (ng/mL)
One number for each entry, in ng/mL.

Prompt: Suppose we examine the molecule Cc1cc(C=CC#N)cc(C)c1Nc1ccnc(Nc2ccc(C#N)cc2)n1 ; what concentration at 312 h value has been reported?
Completion: 5.97

###

# Assay Comment: Plasma kinetics of TMC278 in beagle dogs after single intramuscular administration
# Format: in vivo
# Study Conditions: male, beagle, dog, plasma, im, 2.5 mg/kg, mean (n=2); single IM 2.5 mg/kg, aqueous 30% DMA/50% PEG400 solution
Readout Name: Tmax (h)
Numbers only, in h.

Prompt: Suppose we examine the molecule Cc1cc(C=CC#N)cc(C)c1Nc1ccnc(Nc2ccc(C#N)cc2)n1 [TMC278] ; what Tmax value has been reported?
Completion: 5

###

# Assay Comment: Plasma kinetics of TMC278 in beagle dogs after single intramuscular administration
# Type: in vivo
# Study Conditions: male, beagle, dog, plasma, intramuscular, 2.5 mg/kg, dog No. 16924; 8 h after dose; single IM 2.5 mg/kg, aqueous 30% DMA/50% PEG400 solution
Readout Name: concentration at 8 h (ng/mL)
Answers are plain numbers, in ng/mL.

Prompt: Suppose we examine the compound Cc1cc(C=CC#N)cc(C)c1Nc1ccnc(Nc2ccc(C#N)cc2)n1 [TMC278] ; what concentration at 8 h value has been reported?
Completion: 15.1

###

# Assay Comment: Plasma kinetics of TMC278 in beagle dogs after single intramuscular administration
# Format: in vivo
# Study Conditions: male, beagle, dog, plasma, im, 2.5 mg/kg, dog No. 16924; single IM 2.5 mg/kg, aqueous 30% DMA/50% PEG400 solution
Readout Name: Cmax (ng/mL)
Numbers only, in ng/mL.

Prompt: Suppose we examine the molecule Cc1cc(C=CC#N)cc(C)c1Nc1ccnc(Nc2ccc(C#N)cc2)n1 ; what Cmax value has been reported?
Completion: 23.8

###

# Assay Comment: Plasma kinetics of TMC278 in beagle dogs after single intramuscular administration
# Format: in vivo
# Study Conditions: male, beagle, dog, plasma, intramuscular, 2.5 mg/kg, dog No. 16854; 1 h after dose; single IM 2.5 mg/kg, aqueous 30% DMA/50% PEG400 solution
Readout Name: concentration at 1 h (ng/mL)
Numbers only, in ng/mL.

Prompt: Suppose we examine the compound Cc1cc(C=CC#N)cc(C)c1Nc1ccnc(Nc2ccc(C#N)cc2)n1 ; what concentration at 1 h value has been reported?
Completion: 17

###

# Assay Comment: Plasma kinetics of TMC278 in beagle dogs after single intramuscular administration
# Format: in vivo
# Study Conditions: male, beagle, dog, plasma, intramuscular, 2.5 mg/kg, dog No. 16854; 2 h after dose; single IM 2.5 mg/kg, aqueous 30% DMA/50% PEG400 solution
Readout Name: concentration at 2 h (ng/mL)
Answers are plain numbers, in ng/mL.

Prompt: Suppose we examine the compound Cc1cc(C=CC#N)cc(C)c1Nc1ccnc(Nc2ccc(C#N)cc2)n1 [TMC278] ; what concentration at 2 h value has been reported?
Completion: 20.6

###

# Assay Comment: Plasma kinetics of TMC278 in beagle dogs after single intramuscular administration
# Format: in vivo
# Study Conditions: male, beagle, dog, plasma, intramuscular, 2.5 mg/kg, mean (n=2); day 106; single IM 2.5 mg/kg, aqueous 30% DMA/50% PEG400 solution; read-out: plasma concentration during the wash-out period
Readout Name: concentration at 106 day (ng/mL)
One number for each entry, in ng/mL.

Prompt: Suppose we examine the compound Cc1cc(C=CC#N)cc(C)c1Nc1ccnc(Nc2ccc(C#N)cc2)n1 ; what concentration at 106 day value has been reported?
Completion: 1.89

###

# Assay Comment: Plasma kinetics of TMC278 in beagle dogs after single intramuscular administration
# Type: in vivo
# Study Conditions: male, beagle, dog, plasma, intramuscular, 2.5 mg/kg, dog No. 16854; 312 h after dose; single IM 2.5 mg/kg, aqueous 30% DMA/50% PEG400 solution
# Protocol: The present study was performed in order to study the plasma kinetics and the absolute bioavailability of TMC278 in beagle dogs after single intramuscular administration (IM) of an aqueous 30% dimethylacetamide (DMA)/50% polyethylene glycol 400 (PEG400) solution of TMC278 at 2.5 mg/kg. […] The concentration of TMC278 in dog plasma was determined by a qualified research LC-MS/MS method after solid phase extraction (SPE). Plasma concentrations of TMC278 were determined after proper sample clean up. […]
Readout Name: concentration at 312 h (ng/mL)
Numbers only, in ng/mL.

Prompt: Suppose we examine the compound Cc1cc(C=CC#N)cc(C)c1Nc1ccnc(Nc2ccc(C#N)cc2)n1 ; what concentration at 312 h value has been reported?
Completion: 4.24

###

# Assay Comment: Plasma kinetics of TMC278 in beagle dogs after single intramuscular administration
# Type: in vivo
# Study Conditions: male, beagle, dog, plasma, intramuscular, 2.5 mg/kg, dog No. 16854; 144 h after dose; single IM 2.5 mg/kg, aqueous 30% DMA/50% PEG400 solution
Readout Name: concentration at 144 h (ng/mL)
Answers are plain numbers, in ng/mL.

Prompt: Suppose we examine the compound Cc1cc(C=CC#N)cc(C)c1Nc1ccnc(Nc2ccc(C#N)cc2)n1 ; what concentration at 144 h value has been reported?
Completion: 3.19

###

# Assay Comment: Plasma kinetics of TMC278 in beagle dogs after single intramuscular administration
# Type: in vivo
# Study Conditions: male, beagle, dog, plasma, intramuscular, 2.5 mg/kg, dog No. 16854; day 50; single IM 2.5 mg/kg, aqueous 30% DMA/50% PEG400 solution; read-out: plasma concentration during the wash-out period
Readout Name: concentration at 50 day (ng/mL)
Numbers only, in ng/mL.

Prompt: Suppose we examine the molecule Cc1cc(C=CC#N)cc(C)c1Nc1ccnc(Nc2ccc(C#N)cc2)n1 ; what concentration at 50 day value has been reported?
Completion: 4.1

###

# Assay Comment: Plasma kinetics of TMC278 in beagle dogs after single intramuscular administration
# Type: in vivo
# Study Conditions: male, beagle, dog, plasma, intramuscular, 2.5 mg/kg, dog No. 16924; day 120; single IM 2.5 mg/kg, aqueous 30% DMA/50% PEG400 solution; read-out: plasma concentration during the wash-out period
Readout Name: concentration at 120 day (ng/mL)
Answers are plain numbers, in ng/mL.

Prompt: Suppose we examine the compound Cc1cc(C=CC#N)cc(C)c1Nc1ccnc(Nc2ccc(C#N)cc2)n1 [TMC278] ; what concentration at 120 day value has been reported?
Completion: 4.23

Reference source for all entries: patent US10765674B2
